# Test method notes: pKa value for the compound is determined by potentiometric titration.
# Assay type: physicochemical
Recorded metric: pKa

{"columns": ["Smi", "pKa"],
 "data": [
  ["O=[N+]([O-])c1ccc(CNc2nn[nH]n2)cc1", 5.53],
  ["Cc1cc([N+](=O)[O-])ccc1Nc1nn[nH]n1", 4.46],
  ["Cc1cc([N+](=O)[O-])ccc1N(C)c1nn[nH]n1", 5.02],
  ["O=[N+]([O-])c1ccc(Nc2nn[nH]n2)cc1", 4.23],
  ["O=[N+]([O-])c1ccc2c(c1)CCN2c1nn[nH]n1", 4.02],
  ["CN(c1ccc([N+](=O)[O-])cc1)c1nn[nH]n1", 4.46]
]}

Data provenance is ChEMBL document CHEMBL1129488.
